# targetOrTestSystem: human MC4R (Homo sapiens)
# Construct: host or cells: HEK-293 cells stably expressing the GScAMP22F split-luciferase cAMP sensor and hMC4R, G418 selection
# Sequence (P32245 whole entry): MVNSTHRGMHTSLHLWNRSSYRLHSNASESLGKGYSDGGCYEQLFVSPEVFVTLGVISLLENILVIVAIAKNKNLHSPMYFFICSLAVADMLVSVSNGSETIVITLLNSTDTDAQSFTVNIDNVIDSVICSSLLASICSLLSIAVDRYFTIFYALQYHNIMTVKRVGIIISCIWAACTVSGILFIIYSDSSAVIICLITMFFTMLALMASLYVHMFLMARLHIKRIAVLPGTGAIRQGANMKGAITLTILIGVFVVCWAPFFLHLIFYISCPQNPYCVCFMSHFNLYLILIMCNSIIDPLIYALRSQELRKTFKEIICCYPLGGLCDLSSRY
# assay: split-luciferase cAMP sensor assay, agonist mode (measurement window 1), hMC4R
# Assay type: cell-based
# conditionSummary: agonist mode, hMC4R stable cell line; read-out: MC4R cAMP % max activation
Positions of bridges follow the written chain, without caps; N, C: chain ends. Non-standard residues stand in square brackets, D forms with d. Residues, ends and D or L forms follow the SMILES beside them. dPhe(4-I) = N[C@H](Cc1ccc(I)cc1)C(=O)O; Nle = CCCC[C@H](N)C(=O)O
I'd appreciate it if you could supply Emax values for the items below.
Numbers only, in %.

molecule | Emax / %
CC(=O)N[C@@H](CCCNC(=N)N)C(=O)N[C@H]1CSSC[C@@H](C(N)=O)NC(=O)[C@H](Cc2c[nH]c3ccccc23)NC(=O)[C@H](CCCNC(=N)N)NC(=O)[C@@H](Cc2c[nH]c3ccccc23)NC(=O)[C@H](CCCNC(=N)N)NC(=O)[C@@H](C)NC1=O [CTX-1274] (Ac-RC[dA]R[dW]RWC-NH2; disulfide 2-8) | 77

// next entry
Inquiry: Using the record for CCCC[C@H](NC(=O)[C@H](CCCNC(=N)N)NC(C)=O)C(=O)N[C@H]1CSSC[C@@H](C(N)=O)NC(=O)[C@@H](Cc2c[nH]c3ccccc23)NC(=O)[C@H](CCCNC(=N)N)NC(=O)[C@@H](Cc2ccc(I)cc2)NC(=O)[C@H](Cc2c[nH]cn2)NC1=O [CTX-1233] (Ac-R[Nle]CH[dPhe(4-I)]R[dW]C-NH2; disulfide 3-8 (inferred)) , report its Emax.
Reply text: 16
